Target: Rap guanine nucleotide exchange factor 4 (Homo sapiens) (UniProt Q8WZA2)
Sequence (Q8WZA2 whole entry, looked up): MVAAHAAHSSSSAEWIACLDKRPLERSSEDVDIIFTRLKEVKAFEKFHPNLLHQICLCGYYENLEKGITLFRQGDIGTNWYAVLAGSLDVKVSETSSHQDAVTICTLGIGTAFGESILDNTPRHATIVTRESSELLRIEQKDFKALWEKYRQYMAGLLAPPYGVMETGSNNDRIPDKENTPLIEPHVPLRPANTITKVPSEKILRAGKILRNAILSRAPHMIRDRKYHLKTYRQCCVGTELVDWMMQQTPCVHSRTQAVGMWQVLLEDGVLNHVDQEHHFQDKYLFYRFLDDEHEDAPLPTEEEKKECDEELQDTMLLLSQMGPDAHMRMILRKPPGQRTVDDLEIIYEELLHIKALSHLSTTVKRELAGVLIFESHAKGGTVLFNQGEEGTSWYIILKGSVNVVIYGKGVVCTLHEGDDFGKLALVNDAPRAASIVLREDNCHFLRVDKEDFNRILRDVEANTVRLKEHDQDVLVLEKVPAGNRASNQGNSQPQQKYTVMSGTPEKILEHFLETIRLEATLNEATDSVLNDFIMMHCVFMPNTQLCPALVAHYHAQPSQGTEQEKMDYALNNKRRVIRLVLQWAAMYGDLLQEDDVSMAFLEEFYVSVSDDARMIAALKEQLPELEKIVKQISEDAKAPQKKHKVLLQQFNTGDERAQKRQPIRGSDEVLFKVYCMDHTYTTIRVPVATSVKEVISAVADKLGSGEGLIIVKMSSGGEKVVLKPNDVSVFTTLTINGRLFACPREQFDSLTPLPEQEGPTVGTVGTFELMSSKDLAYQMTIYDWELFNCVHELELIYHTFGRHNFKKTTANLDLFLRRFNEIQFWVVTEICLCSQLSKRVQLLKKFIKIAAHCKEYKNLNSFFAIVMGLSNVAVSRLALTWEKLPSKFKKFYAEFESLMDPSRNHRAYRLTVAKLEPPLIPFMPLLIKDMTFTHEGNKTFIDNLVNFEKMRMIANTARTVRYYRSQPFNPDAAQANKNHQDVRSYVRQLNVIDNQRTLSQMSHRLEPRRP
Assay: qHTS for Agonist of cAMP-regulated guanine nucleotide exchange factor 4 (EPAC2): primary screen; further: nearly all actives have a fitted effect of over 50% in size; further: potency means the concentration at half of the fitted maximal effect
Conditions: biochemical qHTS; EPAC2 activation; series mostly up to 154 µM
The whole screen tested about 360,000 compounds, of which about 290 (0.081%) were called active. Only a selection was taken, and actives are over-represented in it overall.
MEASUREMENT KIND: Potency

{"COMPOUND STRUCTURE STRING": "Cc1ccc(N=Cc2c(O)n(-c3nccs3)c(=O)c3ccccc23)c(C)c1", "VALUE": "70.8 µM (active)"}
{"COMPOUND STRUCTURE STRING": "O=C(C1CCC1)N1CCN(S(=O)(=O)c2ccc([N+](=O)[O-])cc2)CC1", "VALUE": "inactive"}
{"COMPOUND STRUCTURE STRING": "CCCCCC(=O)N1CCN(S(=O)(=O)c2ccc3c(c2)OCCCO3)CC1", "VALUE": "inactive"}
{"COMPOUND STRUCTURE STRING": "O=C1[C@H]2[C@@H](c3ccc(C(F)(F)F)cc3)N[C@]3(CCCN(Cc4ccc(Cl)cc4)C3=O)[C@H]2C(=O)N1Cc1ccccc1", "VALUE": "inactive"}
{"COMPOUND STRUCTURE STRING": "Cc1ccc2c(=O)oc(N(C)C)nc2c1", "VALUE": "inactive"}
{"COMPOUND STRUCTURE STRING": "NC(=O)COC(=O)c1sc2cc(F)ccc2c1Cl", "VALUE": "inactive"}

---

Target: Rap guanine nucleotide exchange factor 4 (Homo sapiens)
Test: qHTS for Agonist of cAMP-regulated guanine nucleotide exchange factor 4 (EPAC2): primary screen; further: nearly all actives have a fitted effect of over 50% in size
Conditions: biochemical qHTS; EPAC2 activation; series mostly up to 154 µM
The campaign covered roughly 360,000 compounds. About 290 (0.081%) were called active. The call rests on the fitted dose curve; in most records, active means well fitted activation curve with a large enough effect; inconclusive means small, poorly fitted or top-dose-only effect; inactive means no such curve, though single readings can be large or run the other way. For the sample, actives were picked, then their nearest neighbours and some compounds at random.
Possible outcomes: 1 = active, 0 = inactive

{"COMPOUND STRUCTURE STRING": "COc1ccc(NC(=O)CN(C)S(=O)(=O)c2ccccc2)cc1OC", "LABEL": 0}
{"COMPOUND STRUCTURE STRING": "CCCNC(=O)CCc1c(C)nc2c(c(C)nn2-c2ccccc2)c1C", "LABEL": 0}
{"COMPOUND STRUCTURE STRING": "Oc1ccc2ccc3cccc[n+]3c2c1", "LABEL": 1}
{"COMPOUND STRUCTURE STRING": "CCOC(=O)/C(C#N)=C/c1ccc(N2CCN(Cc3ccccc3)CC2)cc1", "LABEL": 1}
